experiment: in vivo; conditions: C57BL/6, mouse, kidney, sc, 5 mg/kg
Recorded endpoint: concentration at 1 h (ng/g)
One number for each entry, in ng/g.

Cc1ccccc1C(=O)Nc1ccc(C(=O)N2CCCC(O)c3cc(Cl)ccc32)c(C)c1 (stereo unspecified) yielded concentration at 1 h of 3900

---

assay: in vivo; conditions: C57BL/6, mouse, kidney, sc, 5 mg/kg
Recorded endpoint: concentration at 0.5 h (ng/g)
Give bare numbers, in ng/g.

Cc1ccccc1C(=O)Nc1ccc(C(=O)N2CCCC(O)c3cc(Cl)ccc32)c(C)c1 (stereo unspecified) yielded concentration at 0.5 h of 6100
